Molecular target: Insulin-like growth factor 2 mRNA-binding protein 1 (Homo sapiens, UniProt Q9NZI8)
Sequence (Q9NZI8 whole entry): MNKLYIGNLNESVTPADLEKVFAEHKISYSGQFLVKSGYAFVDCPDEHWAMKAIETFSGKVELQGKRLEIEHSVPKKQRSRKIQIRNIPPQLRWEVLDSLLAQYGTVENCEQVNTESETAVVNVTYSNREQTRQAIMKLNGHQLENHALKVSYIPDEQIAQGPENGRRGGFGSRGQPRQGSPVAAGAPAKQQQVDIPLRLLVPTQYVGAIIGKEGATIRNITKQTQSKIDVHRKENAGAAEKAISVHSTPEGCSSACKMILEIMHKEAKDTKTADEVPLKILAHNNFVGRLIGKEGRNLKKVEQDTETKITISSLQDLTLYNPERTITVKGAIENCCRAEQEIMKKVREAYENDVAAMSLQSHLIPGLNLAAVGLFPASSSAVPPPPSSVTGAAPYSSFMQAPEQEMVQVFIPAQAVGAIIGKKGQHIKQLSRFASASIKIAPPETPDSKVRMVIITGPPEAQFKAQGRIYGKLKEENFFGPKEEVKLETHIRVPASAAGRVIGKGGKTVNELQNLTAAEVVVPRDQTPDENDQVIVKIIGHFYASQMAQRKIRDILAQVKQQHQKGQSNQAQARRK
Assay: Inhibition of human IGF2BP1 transfected in RKO cells incubated for 24 hrs by split-luciferase assay
Format: cell-based
Activity calls are given as the source filed them. No cut-off for these calls is given here.

{"columns": ["molecule", "study system", "inhibition"],
 "data": [
  ["O=C(c1ccc(Cn2cncn2)cc1)N1CCN(c2ccc3c(c2)OCO3)CC1", "Insulin-like growth factor 2 mRNA-binding protein 1 (Homo sapiens, UniProt Q9NZI8)", "inactive"],
  ["Cc1ccc(N2CCN(C(=O)c3ccc(C[Se]C#N)cc3)CC2)cc1", "Insulin-like growth factor 2 mRNA-binding protein 1 (Homo sapiens, UniProt Q9NZI8)", "inactive"],
  ["Cc1ccc(N2CCN(C(=O)c3ccc(CN4CCCC4)cc3)CC2)cc1", "Insulin-like growth factor 2 mRNA-binding protein 1 (Homo sapiens, UniProt Q9NZI8)", "inactive"],
  ["O=C(c1ccc(Cn2ccnc2)cc1)N1CCCC(Nc2ccc3c(c2)OCO3)C1 (stereo not drawn)", "Insulin-like growth factor 2 mRNA-binding protein 1 (Homo sapiens, UniProt Q9NZI8)", "Active"],
  ["Cc1ccc(N2CCN(C(=O)c3ccc(Cn4ccnc4)cc3)CC2)cc1", "Insulin-like growth factor 2 mRNA-binding protein 1 (Homo sapiens, UniProt Q9NZI8)", "inactive"],
  ["Cc1ccc(N2CCN(C(=O)c3ccc(Cn4cncn4)cc3)CC2)cc1", "Insulin-like growth factor 2 mRNA-binding protein 1 (Homo sapiens, UniProt Q9NZI8)", "inactive"],
  ["Cc1ccc(N2CCN(C(=O)c3ccc(CN4CCOCC4)cc3)CC2)cc1", "Insulin-like growth factor 2 mRNA-binding protein 1 (Homo sapiens, UniProt Q9NZI8)", "inactive"],
  ["O=C(c1ccc(CN2CCOCC2)cc1)N1CCN(c2ccc3c(c2)OCO3)CC1", "Insulin-like growth factor 2 mRNA-binding protein 1 (Homo sapiens, UniProt Q9NZI8)", "Active"]
]}
